Provenance of the data: patent US12173018B2

# maps each entry to its MIC
Test system: P. aeruginosa PAO1
Test: Broth microdilution MIC, P. aeruginosa PAO1
Assay type: cell-based
Details: Pseudomonas aeruginosa; P. aeruginosa PAO1, broth microdilution; read-out: MIC P. aeruginosa PAO1
Excerpt: To determine the ability of test compounds to potentiate the inhibition of the growth of bacterial strains, classic cell based broth microdilution minimum inhibitory concentration (MIC) assays were employed. […] Briefly, cryo-preserved bacterial cultures of challenge strains are streaked for isolation on appropriate agar medium, in this case Mueller Hinton II agar. […] The MIC values are read visually as the lowest concentration well with no bacterial growth.

>  <compound>
NCCN1CCN(C(=O)N[C@H](C(=O)N[C@H]2Cc3ccc(F)c(C(=O)O)c3OB2O)c2ncc(O)cc2F)C(=O)C1=O

>  <MIC>
> 128 µg/mL

$$$$
>  <compound>
CCN1CCN(C(=O)NC(C(=O)N[C@H]2Cc3ccc(F)c(C(=O)O)c3OB2O)c2ncc(O)cc2F)C(=O)C1=O (stereo partly drawn)

>  <MIC>
> 128 µg/mL

$$$$
>  <compound>
CCN1CCN(C(=O)NC(C(=O)N[C@H]2Cc3ccc(Cl)c(C(=O)O)c3OB2O)c2ccc(O)c(O)c2Cl)C(=O)C1=O (stereo partly drawn)

>  <MIC>
2 to 4 µg/mL

$$$$

----------
# maps each entry to its pEC50
Target: E. coli PBP1b (Escherichia coli (strain K12))
Sequence (P02919 whole entry): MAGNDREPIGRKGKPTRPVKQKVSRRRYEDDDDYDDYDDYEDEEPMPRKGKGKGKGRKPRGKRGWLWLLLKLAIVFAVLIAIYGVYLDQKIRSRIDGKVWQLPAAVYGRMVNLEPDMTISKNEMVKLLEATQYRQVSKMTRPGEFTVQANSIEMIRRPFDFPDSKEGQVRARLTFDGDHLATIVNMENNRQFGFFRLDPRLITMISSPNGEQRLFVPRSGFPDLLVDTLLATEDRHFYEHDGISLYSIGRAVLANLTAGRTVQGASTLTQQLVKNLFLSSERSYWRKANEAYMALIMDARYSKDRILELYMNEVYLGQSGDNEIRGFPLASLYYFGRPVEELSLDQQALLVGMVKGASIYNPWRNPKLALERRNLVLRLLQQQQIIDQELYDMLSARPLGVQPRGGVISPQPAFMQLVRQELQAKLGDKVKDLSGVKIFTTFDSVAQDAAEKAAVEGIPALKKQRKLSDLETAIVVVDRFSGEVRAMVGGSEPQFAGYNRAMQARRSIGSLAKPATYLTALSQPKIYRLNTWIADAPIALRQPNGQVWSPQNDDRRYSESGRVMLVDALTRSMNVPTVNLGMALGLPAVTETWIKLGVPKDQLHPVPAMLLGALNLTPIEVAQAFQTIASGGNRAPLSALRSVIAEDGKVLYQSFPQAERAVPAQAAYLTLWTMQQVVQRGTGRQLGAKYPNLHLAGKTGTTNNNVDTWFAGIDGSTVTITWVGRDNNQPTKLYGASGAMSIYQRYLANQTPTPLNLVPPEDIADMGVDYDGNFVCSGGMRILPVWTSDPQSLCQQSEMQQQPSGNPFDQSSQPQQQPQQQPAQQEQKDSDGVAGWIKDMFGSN
Experiment: Radioligand competition binding assay with 14C-labeled boronic acid probe, PBP1b
pEC50: −log10 of the molar value.

>  <molecule>
CCN1CCN(C(=O)NC(C(=O)N[C@H]2Cc3cccc(C(=O)O)c3OB2O)C2CCN(S(N)(=O)=O)CC2)C(=O)C1=O (stereo partly shown)

>  <pEC50>
> 5.00

$$$$
>  <molecule>
CCN1CCN(C(=O)NC(C(=O)N[C@H]2Cc3cccc(C(=O)O)c3OB2O)c2ccc(O)nc2)C(=O)C1=O (stereo partly shown)

>  <pEC50>
> 5.00

$$$$
>  <molecule>
CCN1CCN(C(=O)NC(C(=O)N[C@H]2Cc3cccc(C(=O)[O-])c3OB2O)c2ccc[n+](CC(N)=O)c2)C(=O)C1=O (stereo partly shown)

>  <pEC50>
< 4.00

$$$$
>  <molecule>
CCN1CCN(C(=O)N[C@@H](CC(=O)O)C(=O)N[C@H]2Cc3cccc(C(=O)O)c3OB2O)C(=O)C1=O

>  <pEC50>
< 4.00

$$$$
>  <molecule>
CCN1CCN(C(=O)NC(CNC(=O)c2cccc(O)c2O)C(=O)N[C@H]2Cc3cccc(C(=O)O)c3OB2O)C(=O)C1=O (stereo partly shown)

>  <pEC50>
> 5.00

$$$$
>  <molecule>
CCN1CCN(C(=O)NC(C(=O)N[C@H]2Cc3cccc(C(=O)O)c3OB2O)C(O)c2ccc(O)c(O)c2Cl)C(=O)C1=O (stereo partly shown)

>  <pEC50>
4.00 to 5.00

$$$$
>  <molecule>
CCN1CCN(C(=O)N[C@@H](C(=O)N[C@H]2Cc3cccc(C(=O)O)c3OB2O)C2CCN(C(=N)N)CC2)C(=O)C1=O

>  <pEC50>
> 5.00

$$$$
>  <molecule>
CCN1CCN(C(=O)NC(C(=O)N[C@H]2Cc3cccc(C(=O)O)c3OB2O)C2CN(S(N)(=O)=O)C2)C(=O)C1=O (stereo partly shown)

>  <pEC50>
< 4.00

$$$$
>  <molecule>
CCN1CCN(C(=O)N[C@H](C(=O)N[C@H]2Cc3cccc(C(=O)O)c3OB2O)C2(CO)CC2)C(=O)C1=O

>  <pEC50>
> 5.00

$$$$
>  <molecule>
CCN1CCN(C(=O)NC(C(=O)N[C@H]2Cc3cccc(C(=O)O)c3OB2O)c2ccc(CCN)cc2)C(=O)C1=O (stereo partly shown)

>  <pEC50>
4.00 to 5.00

$$$$
>  <molecule>
CCN1CCN(C(=O)NC(C(=O)N[C@H]2Cc3cccc(C(=O)O)c3OB2O)c2ncccn2)C(=O)C1=O (stereo partly shown)

>  <pEC50>
< 4.00

$$$$
>  <molecule>
CCN1CCN(C(=O)NC(C(=O)N[C@H]2Cc3cccc(C(=O)O)c3OB2O)c2ccc(C)cn2)C(=O)C1=O (stereo partly shown)

>  <pEC50>
< 4.00

$$$$
>  <molecule>
CCN1CCN(C(=O)NC(C(=O)N[C@H]2Cc3cccc(C(=O)O)c3OB2O)c2cc(O)c(O)c(Cl)c2)C(=O)C1=O (stereo partly shown)

>  <pEC50>
> 5.00

$$$$
>  <molecule>
CCN1CCN(C(=O)NC(C(=O)N[C@H]2Cc3cccc(C(=O)O)c3OB2O)c2ccc(B(O)O)cc2)C(=O)C1=O (stereo partly shown)

>  <pEC50>
< 4.00

$$$$
>  <molecule>
CCN1CCN(C(=O)NC(C(=O)N[C@H]2Cc3ccc(F)c(C(=O)O)c3OB2O)c2cc(O)c(O)cc2F)C(=O)C1=O (stereo partly shown)

>  <pEC50>
4.00 to 5.00

$$$$
>  <molecule>
CCN1CCN(C(=O)NC(C(=O)N[C@H]2Cc3cccc(C(=O)[O-])c3OB2O)c2ccc[n+](C)c2)C(=O)C1=O (stereo partly shown)

>  <pEC50>
> 5.00

$$$$
>  <molecule>
CCN1CCN(C(=O)NC(C(=O)N[C@H]2Cc3cccc(C(=O)O)c3OB2O)c2cccs2)C(=O)C1=O (stereo partly shown)

>  <pEC50>
< 4.00

$$$$
>  <molecule>
CCN1CCN(C(=O)NC(C(=O)N[C@H]2Cc3cccc(C(=O)O)c3OB2O)c2cnn(C)c2)C(=O)C1=O (stereo partly shown)

>  <pEC50>
4.00 to 5.00

$$$$
>  <molecule>
CCN1CCN(C(=O)NC(C(=O)N[C@H]2Cc3cccc(C(=O)O)c3OB2O)c2cc(OC)c(O)c(OC)c2)C(=O)C1=O (stereo partly shown)

>  <pEC50>
< 4.00

$$$$
>  <molecule>
CCN1CCN(C(=O)NC(C(=O)N[C@H]2Cc3cccc(C(=O)O)c3OB2O)c2cc(O)c(O)cc2Cl)C(=O)C1=O (stereo partly shown)

>  <pEC50>
> 5.00

$$$$
>  <molecule>
CCN1CCN(C(=O)NC(C(=O)N[C@H]2Cc3cccc(C(=O)O)c3OB2O)c2ccc(N)cn2)C(=O)C1=O (stereo partly shown)

>  <pEC50>
4.00 to 5.00

$$$$
>  <molecule>
CCN1CCN(C(=O)NC(C(=O)N[C@H]2Cc3cccc(C(=O)O)c3OB2O)C(Cl)CCCO)C(=O)C1=O (stereo partly shown)

>  <pEC50>
< 4.00

$$$$
>  <molecule>
CCCN1CCN(C(=O)NC(C(=O)N[C@H]2Cc3ccc(F)c(C(=O)O)c3OB2O)c2ccc(O)c(O)c2Cl)C(=O)C1=O (stereo partly shown)

>  <pEC50>
> 5.00

$$$$
>  <molecule>
Nc1nc(C(NC(=O)c2cccc(O)c2O)C(=O)N[C@H]2Cc3cccc(C(=O)O)c3OB2O)cs1 (stereo partly shown)

>  <pEC50>
> 5.00

$$$$
>  <molecule>
CCN1CCN(C(=O)NC(C(=O)N[C@H]2Cc3cccc(C(=O)O)c3OB2O)c2ccc(O)nc2Cl)C(=O)C1=O (stereo partly shown)

>  <pEC50>
4.00 to 5.00

$$$$
>  <molecule>
CCN1CCN(C(=O)NC(C(=O)N[C@H]2Cc3cccc(C(=O)O)c3OB2O)c2ccc(S(C)(=O)=O)cc2)C(=O)C1=O (stereo partly shown)

>  <pEC50>
< 4.00

$$$$
>  <molecule>
CCN1CCN(C(=O)NCC(NC(=O)N2CCN(CC)C(=O)C2=O)C(=O)N[C@H]2Cc3cccc(C(=O)O)c3OB2O)C(=O)C1=O (stereo partly shown)

>  <pEC50>
> 5.00

$$$$
>  <molecule>
CCN1CCN(C(=O)NC(C(=O)N[C@H]2Cc3cccc(C(=O)O)c3OB2O)c2cnc(N)s2)C(=O)C1=O (stereo partly shown)

>  <pEC50>
4.00 to 5.00

$$$$

----------
# maps each entry to its MIC
System: A. baumannii ATCC 19606
Experiment: Broth microdilution MIC, A. baumannii ATCC 19606
Assay type: cell-based
Conditions: Acinetobacter baumannii, ATCC19606; A. baumannii ATCC 19606, broth microdilution; read-out: MIC A. baumannii ATCC 19606
Source text: To determine the ability of test compounds to potentiate the inhibition of the growth of bacterial strains, classic cell based broth microdilution minimum inhibitory concentration (MIC) assays were employed. […] Briefly, cryo-preserved bacterial cultures of challenge strains are streaked for isolation on appropriate agar medium, in this case Mueller Hinton II agar. […] The MIC values are read visually as the lowest concentration well with no bacterial growth.
measurement-type: MIC

>  <compound>
CCN1C[C@H](C)N(C(=O)NC(C(=O)N[C@H]2Cc3ccc(F)c(C(=O)O)c3OB2O)c2ccc(O)c(O)c2Cl)C(=O)C1=O (stereo partly drawn)

>  <result>
< 0.25 µg/mL

$$$$
>  <compound>
O=C(O)c1c(F)ccc2c1OB(O)[C@@H](NC(=O)C(NC(=O)N1CCN(CCF)C(=O)C1=O)c1ccc(O)c(O)c1Cl)C2 (stereo partly drawn)

>  <result>
8 to 16 µg/mL

$$$$
>  <compound>
CS(=O)(=O)NCCN1CCN(C(=O)NC(C(=O)N[C@H]2Cc3cccc(C(=O)O)c3OB2O)c2ccc(O)c(O)c2Cl)C(=O)C1=O (stereo partly drawn)

>  <result>
< 0.25 µg/mL

$$$$
>  <compound>
CCN1CCN(C(=O)NC(C(=O)N[C@H]2Cc3c(F)cc(F)c(C(=O)O)c3OB2O)c2ccc(O)c(O)c2Cl)C(=O)C1=O (stereo partly drawn)

>  <result>
> 128 µg/mL

$$$$
>  <compound>
NCCCN1CCN(C(=O)NC(C(=O)N[C@H]2Cc3cccc(C(=O)O)c3OB2O)c2ccc(O)c(O)c2Cl)C(=O)C1=O (stereo partly drawn)

>  <result>
2 to 4 µg/mL

$$$$
>  <compound>
CCN1CCN(C(=O)NC(C(=O)N[C@H]2Cc3ccc(F)c(C(=O)O)c3OB2O)c2ccc(O)cn2)C(=O)C1=O (stereo partly drawn)

>  <result>
> 128 µg/mL

$$$$
